protocol text: in vitro
assay setup: human, hela cells, % viability
compounds and their reported viability at 28.5 h, 10 µM
reported property: viability at 28.5 h, 10 µM (%)

> print(dat)
                                    compound           reported.property  experimental.result
 1  Cc1nc(-c2nnc3ccc(Cl)nn23)c(Br)[nH]1 [CBK028706B]  viability at 28.5 h, 10 µM                 87.5
 2  Cc1cc(CCCC(=O)N2CCCC(c3ccc(Nc4ncccn4)cn3)C2)ccc1F (centres unmarked)  viability at 28.5 h, 10 µM                 78.6
 3  CCOC(=O)c1c(CN(C)C)n(-c2ccccc2)c2cc(Br)c(O)cc12 [CBK261309C]  viability at 28.5 h, 10 µM                 83.4
 4            COC(=O)CCNc1n[nH]c(=O)[nH]c1=O  viability at 28.5 h, 10 µM                 90.4
 5  COc1ccc(NC(=O)CCC(=O)N2CCC(C(=O)O)CC2)cc1  viability at 28.5 h, 10 µM                  100
 6  Cn1c(Cc2csc(NC(=O)CNC(=O)Cc3ccccc3)n2)n[nH]c1=S  viability at 28.5 h, 10 µM                  102
 7     CCOC(=O)/C(=N/Nc1cccc(C)c1)c1csc(N)n1  viability at 28.5 h, 10 µM                 97.9
 8  COc1ccc(C(NC(=O)[C@H]2CCCN2C(=O)NCc2ccccc2C)c2ccccc2C)cn1 (some centres unmarked)  viability at 28.5 h, 10 µM                 90.9
 9             O=C(O)C1(NCc2ccc(F)cc2)CCCCC1  viability at 28.5 h, 10 µM                 87.1
10  Cc1cnccc1-c1cn(C)nc1-c1ccc(CNC(=O)c2cccc(N(C)C)c2)cc1  viability at 28.5 h, 10 µM                 86.5
11       COc1ccc(Cl)cc1NC(=O)CC(C)(C)CC(=O)O  viability at 28.5 h, 10 µM                 90.4
12  C(=C\c1ccccc1)/CNCCCN1CCOCC1 [CBK278195C]  viability at 28.5 h, 10 µM                  105
13  CCOC(=O)CC(=O)CSc1nc(N)c2c3c(sc2n1)CCCC3  viability at 28.5 h, 10 µM                  120
14  O=C(C1CCN(S(=O)(=O)c2ccc3ccccc3c2)CC1)N1CCC(Cc2ccccc2)CC1  viability at 28.5 h, 10 µM                   83
15  CC1CCN(S(=O)(=O)c2ccc(NC(=O)c3ccc(Br)o3)cc2)CC1  viability at 28.5 h, 10 µM                  101
16  CC(C(=O)NC1(C#N)CCCCC1)N1CCOC(CN(C)C)C1 (centres unmarked)  viability at 28.5 h, 10 µM                 88.6
17                    Cc1ccccc1CSc1cccc(F)c1  viability at 28.5 h, 10 µM                  109
18    C[C@@H]1CN(C(=O)OCc2nccn2C)C[C@H](C)O1  viability at 28.5 h, 10 µM                  103
19  Cn1cccc1C(=O)NCc1ccc(OC2CCNCC2)cc1 [CBK036360T]  viability at 28.5 h, 10 µM                   93
20  COc1ccc2c(c1)cc(C(=O)N(C)CCCn1nc(C)cc1C)n2C  viability at 28.5 h, 10 µM                 81.4

All values here come from paper PMC12040169.
